- study.target: human SARM1(50-724) (Homo sapiens, UniProt Q6SZW1)
- Sequence (Q6SZW1 50-724): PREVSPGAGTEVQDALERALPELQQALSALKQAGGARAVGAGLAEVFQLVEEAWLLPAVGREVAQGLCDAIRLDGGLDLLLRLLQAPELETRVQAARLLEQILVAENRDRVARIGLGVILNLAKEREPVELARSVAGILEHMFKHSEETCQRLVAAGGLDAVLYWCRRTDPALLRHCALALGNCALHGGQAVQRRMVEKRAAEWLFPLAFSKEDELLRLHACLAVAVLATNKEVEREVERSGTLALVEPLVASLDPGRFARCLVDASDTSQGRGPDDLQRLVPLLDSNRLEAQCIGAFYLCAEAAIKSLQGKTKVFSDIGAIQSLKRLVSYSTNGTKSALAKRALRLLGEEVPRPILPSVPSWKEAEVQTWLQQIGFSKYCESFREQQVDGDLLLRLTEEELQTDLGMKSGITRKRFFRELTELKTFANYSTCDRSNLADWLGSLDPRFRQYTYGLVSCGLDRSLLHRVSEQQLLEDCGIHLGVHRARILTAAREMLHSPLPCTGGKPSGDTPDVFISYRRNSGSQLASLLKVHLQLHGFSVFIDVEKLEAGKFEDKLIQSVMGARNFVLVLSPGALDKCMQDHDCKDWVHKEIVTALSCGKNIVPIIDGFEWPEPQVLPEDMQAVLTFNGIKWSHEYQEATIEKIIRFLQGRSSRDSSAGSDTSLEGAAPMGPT
quantity.kind: IC50

**Query** Need IC50, item `COc1c(-c2ccncc2)n[nH]c1NC(=O)CCc1ccc(Cl)cc1`
**Result** < 1000 nM

Now for another entry.
**Query** Need IC50, item `Cc1c(-c2ccncc2)n[nH]c1NC(=O)NCc1ccc(C#N)cc1`
**Result** < 1000 nM
